targetUnderTest: Sodium-dependent serotonin transporter (Rattus norvegicus)
Sequence (P31652 whole entry): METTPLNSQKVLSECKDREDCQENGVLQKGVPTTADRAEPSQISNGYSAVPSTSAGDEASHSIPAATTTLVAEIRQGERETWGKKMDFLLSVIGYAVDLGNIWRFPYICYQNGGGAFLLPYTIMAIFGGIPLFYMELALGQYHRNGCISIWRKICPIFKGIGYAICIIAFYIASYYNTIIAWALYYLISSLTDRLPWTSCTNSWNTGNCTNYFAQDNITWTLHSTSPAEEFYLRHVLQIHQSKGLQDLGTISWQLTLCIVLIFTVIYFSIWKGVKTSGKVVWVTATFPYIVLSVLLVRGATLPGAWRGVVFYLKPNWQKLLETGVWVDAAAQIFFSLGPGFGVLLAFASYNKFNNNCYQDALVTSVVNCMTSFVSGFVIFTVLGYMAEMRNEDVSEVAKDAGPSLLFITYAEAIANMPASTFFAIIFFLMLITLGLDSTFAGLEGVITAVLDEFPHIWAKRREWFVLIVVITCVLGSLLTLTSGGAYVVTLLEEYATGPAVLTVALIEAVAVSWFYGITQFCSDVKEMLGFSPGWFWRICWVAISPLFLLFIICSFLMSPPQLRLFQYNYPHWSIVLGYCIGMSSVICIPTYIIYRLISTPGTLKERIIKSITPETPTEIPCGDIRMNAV
methodNotes: Inhibition of [3H]serotonin uptake at SERT in rat striatal synaptosomes preincubated for 5 mins followed by radioligand addition measured after 10 mins by scintillation spectrometry
Format: subcellular, Striatum
pKi: −log10 of the molar value.
pKi below 6 gives n; pKi at or above it gives y.

FCCOc1ccccc1CCN1CCN(CCc2ccccc2Cl)CC1    y
FCCOc1ccccc1CCN1CCN(CCc2ccc(F)cc2)CC1    y
FCCOc1ccc(CCN2CCN(CCc3ccccc3Cl)CC2)cc1    y
COc1ccccc1CCN1CCC(CCc2cccc(OCCF)c2)CC1    y
FCCOc1ccc(CCC2CCN(CCc3ccccc3Cl)CC2)cc1    n
FCCOc1ccc(CCN2CCN(CCc3ccccc3)CC2)cc1    n

Attention now turns to another entry.
Is it the case that FCCOc1ccc(CCN2CCC(CCc3ccccc3)CC2)cc1 has pKi reaching or exceeding 6?
y

====

Below: a set of entries, each annotated with reported pKi.
targetUnderTest: Synaptic vesicular amine transporter (Rattus norvegicus)
Sequence (Q01827 whole entry): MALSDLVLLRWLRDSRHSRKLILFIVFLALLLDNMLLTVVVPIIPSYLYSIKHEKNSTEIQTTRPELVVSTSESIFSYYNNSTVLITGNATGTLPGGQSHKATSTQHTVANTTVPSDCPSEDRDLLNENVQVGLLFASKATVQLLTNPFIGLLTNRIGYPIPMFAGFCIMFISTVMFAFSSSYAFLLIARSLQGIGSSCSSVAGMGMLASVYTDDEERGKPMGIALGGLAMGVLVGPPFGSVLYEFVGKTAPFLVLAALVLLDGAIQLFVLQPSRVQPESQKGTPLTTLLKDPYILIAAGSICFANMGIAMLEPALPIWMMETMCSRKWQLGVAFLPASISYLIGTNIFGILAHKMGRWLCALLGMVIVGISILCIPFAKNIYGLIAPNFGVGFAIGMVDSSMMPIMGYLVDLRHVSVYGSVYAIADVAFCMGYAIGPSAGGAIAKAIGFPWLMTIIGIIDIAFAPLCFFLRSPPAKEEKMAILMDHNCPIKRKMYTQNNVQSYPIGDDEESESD
methodNotes: Inhibition of [3H]dopamine uptake at VMAT2 in rat striatal synaptic vesicles by scintillation spectrometry
To interpret pKi, take it as minus log10 of a concentration measured in moles per litre.

Consider the reported pKi for these compounds:
FCCOc1ccc(CCC2CCN(CCc3ccccc3Cl)CC2)cc1    6.72
COc1ccc(CCN2CCC(CCc3cccc(OCCF)c3)CC2)cc1    7.17
FCCOc1ccc(CCN2CCC(CCc3ccccc3)CC2)cc1    6.82
FCCOc1ccccc1CCN1CCN(CCc2ccc(F)cc2)CC1    7.62
COc1ccccc1CCN1CCC(CCc2cccc(OCCF)c2)CC1    7.21
FCCOc1ccc(CCN2CCN(CCc3ccccc3Cl)CC2)cc1    6.35
COc1ccc(CCN2CCC(CCc3ccccc3OCCF)CC2)cc1    7.14
FCCOc1cccc(CCC2CCN(CCc3ccccc3)CC2)c1    7.28

Field: next compound
Sample FCCOc1ccccc1CCN1CCN(CCc2ccccc2Cl)CC1 — what was its pKi?
7.85

====

methodNotes: Half life in Sprague-Dawley rat plasma
Assay type: ADME, cell-free
experimentalEndpoint: half-life (min)
Field format: number, assumed min, no unit text.

Using the record for CN1[C@@H](CC(=O)c2ccccc2)CCC[C@H]1C[C@H](O)c1ccccc1 , report its half-life.
50

====

In what follows, each item is paired with its pIC50 for Voltage-gated inwardly rectifying potassium channel KCNH2 (Homo sapiens, UniProt Q12809).
// pIC50 here means minus log10 of the molar concentration (mol/L)

COc1ccccc1CCN1CCC(CCc2cccc(OCCF)c2)CC1    6.10
COc1ccc(CCN2CCC(CCc3ccccc3OCCF)CC2)cc1    6.46

Entry FCCOc1ccc(CCN2CCN(CCc3ccccc3)CC2)cc1 : reported pIC50 = ?
5.52

Form field: reported pIC50 of FCCOc1ccc(CCN2CCN(CCc3ccccc3Cl)CC2)cc1
5.85

Given COc1ccc(CCN2CCC(CCc3cccc(OCCF)c3)CC2)cc1 , state its recorded pIC50.
6.55

# get_value(readout='pIC50', item= FCCOc1ccccc1CCN1CCN(CCc2ccccc2Cl)CC1 )
6.07

pIC50 lookup needed for FCCOc1ccc(CCN2CCC(CCc3ccccc3)CC2)cc1 , thanks.
6.46

====

targetUnderTest: Synaptic vesicular amine transporter (Rattus norvegicus)
methodNotes: Inhibition of [3H]dopamine uptake at VMAT2 in rat striatal synaptic vesicles by scintillation spectrometry
The entries below come with measured log10 Ki values attached.
Please note: log10 values; quantity Ki; unit µM.

FCCOc1ccc(CCN2CCN(CCc3ccccc3)CC2)cc1    -0.22

What log10 Ki value was documented for this molecule, FCCOc1ccccc1CCC1CCN(CCc2ccc(F)cc2)CC1 ?
-1.57

Recorded log10 Ki of FCCOc1cccc(CCN2CCC(CCc3ccccc3)CC2)c1 , please.
-1.62
